# Lookup of reported fold change (FC) keyed by entry
assay: Chondroprotective activity in bovine articular cartilage explant cultures assessed as reduction in IL1-induced glycosaminoglycan release at 0.1 mM after 96 hrs
Assay type: functional, Bos taurus
Give your answer as a number; write no unit.

Observe how each entry below is paired with its result.
compound: COc1ccc(OP(=O)(N[C@H](C)C(=O)OCc2ccccc2)OC[C@H]2OC(O)[C@H](NC(C)=O)[C@@H](O)[C@@H]2O)cc1 (some centres undefined)
readout_label: fold change (FC)
observed_result: 3.4

compound: COc1ccc(OP(=O)(N[C@@H](CC(C)C)C(=O)OCc2ccccc2)OC[C@H]2OC(O)[C@H](NC(C)=O)[C@@H](O)[C@@H]2O)cc1 (some centres undefined)
readout_label: fold change (FC)
observed_result: 4.1

compound: CCOC(=O)[C@@H](NP(=O)(OC[C@H]1OC(O)[C@H](NC(C)=O)[C@@H](O)[C@@H]1O)Oc1ccc(OC)cc1)C(C)C (some centres undefined)
readout_label: fold change (FC)
observed_result: 4.4

stdin: Which fold change (FC) value is on record for COc1ccc(OP(=O)(N[C@@H](CCSC)C(=O)OCc2ccccc2)OC[C@H]2OC(O)[C@H](NC(C)=O)[C@@H](O)[C@@H]2O)cc1 (some centres undefined) ?
stdout: 3.8

stdin: Which fold change (FC) value is on record for COc1ccc(OP(=O)(NC(C)(C)C(=O)OCc2ccccc2)OC[C@H]2OC(O)[C@H](NC(C)=O)[C@@H](O)[C@@H]2O)cc1 (some centres undefined) ?
stdout: 3.4

stdin: Which fold change (FC) value is on record for COC(=O)[C@H](C)NP(=O)(OC[C@H]1OC(O)[C@H](NC(C)=O)[C@@H](O)[C@@H]1O)Oc1ccc(OC)cc1 (some centres undefined) ?
stdout: 3.9

stdin: Which fold change (FC) value is on record for CC(=O)N[C@@H]1[C@@H](O)[C@H](O)[C@@H](CO)O[C@H]1O [N-ACETYLGLUCOSAMINE] ?
stdout: 4.3

stdin: Which fold change (FC) value is on record for COc1ccc(OP(=O)(OC[C@H]2OC(O)[C@H](NC(C)=O)[C@@H](O)[C@@H]2O)N2CCC[C@H]2C(=O)OCc2ccccc2)cc1 (some centres undefined) ?
stdout: 4

====

assay: Cytotoxicity against bovine chondrocytes at 10 mM after 96 hrs by MTT cell viability assay
Format: cell-based, Bos taurus
test_parameters: cattle, 10000 µM
# Lookup of reported Activity keyed by entry
Quick note: number first, unit second.

compound: COc1ccc(OP(=O)(N[C@@H](CC(C)C)C(=O)OCc2ccccc2)OC[C@H]2OC(O)[C@H](NC(C)=O)[C@@H](O)[C@@H]2O)cc1 (some centres undefined)
Activity: 39%

stdin: Which Activity value is on record for COc1ccc(OP(=O)(N[C@@H](Cc2ccccc2)C(=O)OCc2ccccc2)OC[C@H]2OC(O)[C@H](NC(C)=O)[C@@H](O)[C@@H]2O)cc1 (some centres undefined) ?
stdout: 49%

stdin: Which Activity value is on record for N[C@H]1C(O)O[C@H](CO)[C@@H](O)[C@@H]1O (some centres undefined) [GLUCOSAMINE] ?
stdout: 56%

stdin: Which Activity value is on record for CC(=O)N[C@@H]1[C@@H](O)[C@H](O)[C@@H](CO)O[C@H]1O [N-ACETYLGLUCOSAMINE] ?
stdout: 61%

====

assay: Chondroprotective activity in bovine articular cartilage explant cultures assessed as reduction in IL1-induced glycosaminoglycan release at 10 mM after 96 hrs relative to control
Format: functional, Bos taurus
Parameters: scale not given: the % may be the effect or the level left
# Lookup of reported Activity keyed by entry
Give your result in % as a bare value.

Observe how each entry below is paired with its result.
compound: N[C@H]1C(O)O[C@H](CO)[C@@H](O)[C@@H]1O (stereo partly drawn) [GLUCOSAMINE]
observed_result: 19
//
compound: COc1ccc(OP(=O)(N[C@@H](Cc2ccccc2)C(=O)OCc2ccccc2)OC[C@H]2OC(O)[C@H](NC(C)=O)[C@@H](O)[C@@H]2O)cc1 (stereo partly drawn)
observed_result: 2.3
//
compound: COc1ccc(OP(=O)(N[C@@H](CC(C)C)C(=O)OCc2ccccc2)OC[C@H]2OC(O)[C@H](NC(C)=O)[C@@H](O)[C@@H]2O)cc1 (stereo partly drawn)
observed_result: 64
//
compound: CC(=O)N[C@@H]1[C@@H](O)[C@H](O)[C@@H](CO)O[C@H]1O [N-ACETYLGLUCOSAMINE]
observed_result: 9.3
//
compound: COc1ccc(OP(=O)(N[C@@H](C)C(=O)OCc2ccccc2)OC[C@H]2OC(O)[C@H](NC(C)=O)[C@@H](O)[C@@H]2O)cc1 (stereo partly drawn)
observed_result: 24.2

stdin: Which Activity value is on record for COc1ccc(OP(=O)(N[C@H](C(=O)OCc2ccccc2)C(C)C)OC[C@H]2OC(O)[C@H](NC(C)=O)[C@@H](O)[C@@H]2O)cc1 (stereo partly drawn) ?
stdout: 85.3

stdin: Which Activity value is on record for CC[C@H](C)[C@H](NP(=O)(OC[C@H]1OC(O)[C@H](NC(C)=O)[C@@H](O)[C@@H]1O)Oc1ccc(OC)cc1)C(=O)OCc1ccccc1 (stereo partly drawn) ?
stdout: 74.6

stdin: Which Activity value is on record for COc1ccc(OP(=O)(OC[C@H]2OC(O)[C@H](NC(C)=O)[C@@H](O)[C@@H]2O)N2CCC[C@H]2C(=O)OCc2ccccc2)cc1 (stereo partly drawn) ?
stdout: 65.6

====

# Lookup of reported Activity keyed by entry
assay: Cytotoxicity against bovine chondrocytes at 0.1 mM after 96 hrs by MTT cell viability assay
Format: cell-based, Bos taurus
test_parameters: cattle, 100 µM
Give your result in % as a bare value.

stdin: Which Activity value is on record for COc1ccc(OP(=O)(NCC(=O)OCc2ccccc2)OC[C@H]2OC(O)[C@H](NC(C)=O)[C@@H](O)[C@@H]2O)cc1 (stereo not given in full) ?
stdout: 99

stdin: Which Activity value is on record for COc1ccc(OP(=O)(N[C@@H](CC(C)C)C(=O)OCc2ccccc2)OC[C@H]2OC(O)[C@H](NC(C)=O)[C@@H](O)[C@@H]2O)cc1 (stereo not given in full) ?
stdout: 87

====

assay: Cytotoxicity against bovine chondrocytes at 1 mM after 96 hrs by MTT cell viability assay
Format: cell-based, Bos taurus
test_parameters: cattle, 1000 µM
readout_label: Activity (%)
Give your result in % as a bare value.

Observe how each entry below is paired with its result.
molecule: CC[C@H](C)[C@H](NP(=O)(OC[C@H]1OC(O)[C@H](NC(C)=O)[C@@H](O)[C@@H]1O)Oc1ccc(OC)cc1)C(=O)OCc1ccccc1 (stereo partly drawn)
scale_unit: %
Activity: 118

molecule: COc1ccc(OP(=O)(OC[C@H]2OC(O)[C@H](NC(C)=O)[C@@H](O)[C@@H]2O)N2CCC[C@H]2C(=O)OCc2ccccc2)cc1 (stereo partly drawn)
scale_unit: %
Activity: 85

Turning to the following molecule.
stdin: Which Activity value is on record for CCOC(=O)CN(C)P(=O)(OC[C@H]1OC(O)[C@H](NC(C)=O)[C@@H](O)[C@@H]1O)Oc1ccc(OC)cc1 (stereo partly drawn) ?
stdout: 100

====

assay: Cytotoxicity against bovine chondrocytes at 1 mM after 96 hrs by MTT cell viability assay
Format: cell-based, Bos taurus
test_parameters: cattle, 1000 µM
Assign t to entries whose Activity meets or exceeds 60%; assign f to the rest.

Reference set, count: 6
compound: COc1ccc(OP(=O)(N[C@H](C)C(=O)OCc2ccccc2)OC[C@H]2OC(O)[C@H](NC(C)=O)[C@@H](O)[C@@H]2O)cc1 (some centres not stated)
category_label: t
//
compound: COc1ccc(OP(=O)(N[C@@H](C)C(=O)OCc2ccccc2)OC[C@H]2OC(O)[C@H](NC(C)=O)[C@@H](O)[C@@H]2O)cc1 (some centres not stated)
category_label: t
//
compound: CCOC(=O)CNP(=O)(OC[C@H]1OC(O)[C@H](NC(C)=O)[C@@H](O)[C@@H]1O)Oc1ccc(OC)cc1 (some centres not stated)
category_label: f
//
compound: COc1ccc(OP(=O)(NC(C)(C)C(=O)OCc2ccccc2)OC[C@H]2OC(O)[C@H](NC(C)=O)[C@@H](O)[C@@H]2O)cc1 (some centres not stated)
category_label: t
//
compound: COc1ccc(OP(=O)(N[C@@H](CCSC)C(=O)OCc2ccccc2)OC[C@H]2OC(O)[C@H](NC(C)=O)[C@@H](O)[C@@H]2O)cc1 (some centres not stated)
category_label: f
//
compound: N[C@H]1C(O)O[C@H](CO)[C@@H](O)[C@@H]1O (some centres not stated)
category_label: t

Now, please, on to the next compound.
stdin: Hi team, for COc1ccc(OP(=O)(N[C@H](C(=O)OC(C)C)C(C)C)OC[C@H]2OC(O)[C@H](NC(C)=O)[C@@H](O)[C@@H]2O)cc1 (some centres not stated) , is the recorded Activity at or above 60%?
stdout: f
